molecular target: integrin α8β1 (Homo sapiens, UniProt P05556+P53708); assay: integrin α8β1-mediated attachment of transfected HEK-293 cells to mouse nephronectin; details: mean and SD, at least 3 independent assays; transfected HEK-293, nephronectin; read-out: IC50, inhibition of α8β1-mediated cell attachment
Sequence (P53708 39-906 limits assumed): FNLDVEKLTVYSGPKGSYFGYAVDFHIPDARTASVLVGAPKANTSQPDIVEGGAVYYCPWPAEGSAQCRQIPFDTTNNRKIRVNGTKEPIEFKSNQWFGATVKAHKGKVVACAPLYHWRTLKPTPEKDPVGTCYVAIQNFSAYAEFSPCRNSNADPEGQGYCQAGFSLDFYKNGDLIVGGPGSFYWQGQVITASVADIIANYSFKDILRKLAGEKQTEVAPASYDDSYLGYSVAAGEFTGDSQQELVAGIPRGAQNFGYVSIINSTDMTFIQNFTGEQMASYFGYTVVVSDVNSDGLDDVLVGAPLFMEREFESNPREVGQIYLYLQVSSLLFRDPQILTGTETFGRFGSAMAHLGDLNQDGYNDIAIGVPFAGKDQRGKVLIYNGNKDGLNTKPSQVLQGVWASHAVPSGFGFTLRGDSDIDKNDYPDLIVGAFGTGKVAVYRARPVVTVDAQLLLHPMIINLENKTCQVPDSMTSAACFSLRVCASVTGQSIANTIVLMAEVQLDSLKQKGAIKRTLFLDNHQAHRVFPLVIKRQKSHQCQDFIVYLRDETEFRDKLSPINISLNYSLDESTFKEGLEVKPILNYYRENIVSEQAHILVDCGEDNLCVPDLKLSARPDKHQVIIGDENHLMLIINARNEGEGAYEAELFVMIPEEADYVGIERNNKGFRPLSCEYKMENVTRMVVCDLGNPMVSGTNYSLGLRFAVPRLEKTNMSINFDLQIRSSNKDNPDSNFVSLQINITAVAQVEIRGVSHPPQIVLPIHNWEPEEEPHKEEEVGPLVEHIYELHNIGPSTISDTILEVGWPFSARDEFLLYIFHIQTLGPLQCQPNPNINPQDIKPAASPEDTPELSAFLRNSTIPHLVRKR
Sequence (P53708 907-1063 partner limits assumed): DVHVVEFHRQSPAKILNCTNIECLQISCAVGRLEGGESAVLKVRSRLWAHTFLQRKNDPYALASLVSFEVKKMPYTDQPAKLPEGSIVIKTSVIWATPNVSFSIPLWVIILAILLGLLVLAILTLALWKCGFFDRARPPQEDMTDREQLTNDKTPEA
Sequence (P05556 21-798): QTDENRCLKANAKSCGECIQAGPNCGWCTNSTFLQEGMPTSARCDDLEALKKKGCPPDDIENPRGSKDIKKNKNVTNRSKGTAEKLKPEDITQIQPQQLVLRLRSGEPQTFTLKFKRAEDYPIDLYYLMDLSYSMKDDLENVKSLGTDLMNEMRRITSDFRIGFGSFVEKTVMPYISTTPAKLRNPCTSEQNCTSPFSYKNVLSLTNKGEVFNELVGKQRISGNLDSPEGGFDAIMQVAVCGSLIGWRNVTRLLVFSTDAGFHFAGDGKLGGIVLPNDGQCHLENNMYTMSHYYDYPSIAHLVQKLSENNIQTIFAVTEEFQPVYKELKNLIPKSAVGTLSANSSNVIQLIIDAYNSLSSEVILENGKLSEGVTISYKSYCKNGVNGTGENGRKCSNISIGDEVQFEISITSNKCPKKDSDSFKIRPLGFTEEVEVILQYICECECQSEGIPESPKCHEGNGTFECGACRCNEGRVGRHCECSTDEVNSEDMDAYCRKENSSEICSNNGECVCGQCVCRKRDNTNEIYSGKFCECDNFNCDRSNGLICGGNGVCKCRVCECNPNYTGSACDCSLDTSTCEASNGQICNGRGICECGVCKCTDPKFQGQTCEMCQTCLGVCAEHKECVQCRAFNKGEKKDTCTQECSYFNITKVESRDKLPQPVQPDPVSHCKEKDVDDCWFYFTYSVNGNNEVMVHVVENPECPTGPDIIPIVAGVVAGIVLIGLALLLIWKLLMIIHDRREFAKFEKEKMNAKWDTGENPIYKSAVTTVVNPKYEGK
QUANTITY_NAME: pIC50
Answers are plain numbers, as −log10 of the molar value.

Problem: Entry under review: CC(C)(C)c1cc(Br)cc([C@H](CC(=O)O)NC(=O)CNC(=O)c2cc(O)cc(NC3=NCC(O)CN3)c2)c1 (stereo partly shown) [CWHM‐12] . Reported pIC50?
Solution: 7.46

====

biological target: integrin αvβ5 (Homo sapiens, UniProt P06756+P18084); assay: integrin αvβ5-mediated cell attachment to ligand; details: mean and SD, at least 3 independent assays; read-out: IC50, inhibition of αvβ5-mediated cell attachment
Sequence (P06756 31-889 limits assumed): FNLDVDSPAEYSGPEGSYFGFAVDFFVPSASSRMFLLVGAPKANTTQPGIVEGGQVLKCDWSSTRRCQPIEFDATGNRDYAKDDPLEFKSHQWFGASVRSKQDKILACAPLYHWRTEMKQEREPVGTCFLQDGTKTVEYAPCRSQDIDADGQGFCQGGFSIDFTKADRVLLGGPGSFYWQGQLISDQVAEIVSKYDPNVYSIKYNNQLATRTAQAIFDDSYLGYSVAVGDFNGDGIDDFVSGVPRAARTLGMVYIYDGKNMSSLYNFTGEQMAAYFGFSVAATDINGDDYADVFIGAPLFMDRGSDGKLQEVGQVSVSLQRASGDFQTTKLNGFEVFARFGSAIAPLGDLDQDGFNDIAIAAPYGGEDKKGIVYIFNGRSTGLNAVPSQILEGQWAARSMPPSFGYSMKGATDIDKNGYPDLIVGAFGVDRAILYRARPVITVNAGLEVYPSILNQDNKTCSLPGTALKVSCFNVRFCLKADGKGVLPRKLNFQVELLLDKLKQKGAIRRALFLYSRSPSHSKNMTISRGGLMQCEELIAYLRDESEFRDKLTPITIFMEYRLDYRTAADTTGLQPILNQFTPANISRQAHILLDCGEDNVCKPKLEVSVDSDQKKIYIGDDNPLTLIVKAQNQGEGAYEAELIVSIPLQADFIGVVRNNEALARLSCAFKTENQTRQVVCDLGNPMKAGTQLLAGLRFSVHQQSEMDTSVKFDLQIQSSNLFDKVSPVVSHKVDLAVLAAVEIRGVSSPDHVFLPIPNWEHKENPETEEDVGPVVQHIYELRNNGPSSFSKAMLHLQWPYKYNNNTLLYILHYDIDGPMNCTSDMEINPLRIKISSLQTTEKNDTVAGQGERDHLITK
Sequence (P06756 891-1048 partner limits assumed): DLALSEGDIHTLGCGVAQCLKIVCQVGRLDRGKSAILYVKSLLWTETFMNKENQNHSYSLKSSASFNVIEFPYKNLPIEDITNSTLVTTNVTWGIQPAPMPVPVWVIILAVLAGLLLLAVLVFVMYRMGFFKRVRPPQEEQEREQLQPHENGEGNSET
Sequence (P18084 24-799): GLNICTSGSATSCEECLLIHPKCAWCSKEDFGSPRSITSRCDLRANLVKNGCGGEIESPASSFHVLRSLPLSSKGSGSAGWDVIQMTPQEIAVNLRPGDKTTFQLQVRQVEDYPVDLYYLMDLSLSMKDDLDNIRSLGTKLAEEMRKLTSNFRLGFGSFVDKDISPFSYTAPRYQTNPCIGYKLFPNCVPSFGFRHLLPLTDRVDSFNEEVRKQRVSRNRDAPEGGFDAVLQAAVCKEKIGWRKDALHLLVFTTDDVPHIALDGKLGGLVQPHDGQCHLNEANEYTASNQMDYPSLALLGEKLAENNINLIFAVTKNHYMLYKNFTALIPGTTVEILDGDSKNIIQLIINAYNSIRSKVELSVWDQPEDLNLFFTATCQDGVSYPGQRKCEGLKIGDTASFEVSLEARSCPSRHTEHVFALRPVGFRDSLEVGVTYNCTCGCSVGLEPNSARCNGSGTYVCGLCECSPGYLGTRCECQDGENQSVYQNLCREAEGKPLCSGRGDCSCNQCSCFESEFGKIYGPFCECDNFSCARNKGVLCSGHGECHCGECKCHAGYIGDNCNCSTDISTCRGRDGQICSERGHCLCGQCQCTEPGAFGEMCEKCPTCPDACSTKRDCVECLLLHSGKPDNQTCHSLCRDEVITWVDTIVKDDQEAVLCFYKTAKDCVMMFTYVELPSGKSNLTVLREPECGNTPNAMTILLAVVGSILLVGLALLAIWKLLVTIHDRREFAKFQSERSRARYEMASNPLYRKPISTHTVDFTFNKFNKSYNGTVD
QUANTITY_NAME: IC50 (nM)
Give bare numbers, in nM.

Problem: Given the entry CC(C)(C)c1cc(Br)cc([C@H](CC(=O)O)NC(=O)CNC(=O)c2cc(O)cc(NC3=NCC(O)CN3)c2)c1 (stereo partly shown) [CWHM‐12] , what IC50 was observed with integrin αvβ5 (Homo sapiens, UniProt P06756+P18084)?
Solution: 47
